As shown below, each of these compounds has a reported Live cells value.
System: PNT1A
Assay text: Induction of apoptosis in human PNT1A cells assessed as live cells incubated for 48 hrs by annexin V and 7-AAD staining based flow cytometry analysis (reference value: 99.69%)
Type: functional

Smiles entry: C[n+]1ccc(/C=C/c2cc3c(O)c(c2)Cc2cc(C(C)(C)C)cc(c2OCCCn2cc(CN4C(=O)C(=O)c5ccccc54)nn2)Cc2cc(/C=C/c4cc[n+](C)cc4)cc(c2O)Cc2cc(C(C)(C)C)cc(c2OCCCn2cc(CN4C(=O)C(=O)c5ccccc54)nn2)C3)cc1.[I-].[I-]
Tgt: PNT1A
Live cells, %: 99.14

Smiles entry: C[n+]1ccc(/C=C/c2cc3c(O)c(c2)Cc2cc(C(C)(C)C)cc(c2OCCCn2cc(CN4C(=O)C(=O)c5cc(Cl)ccc54)nn2)Cc2cc(/C=C/c4cc[n+](C)cc4)cc(c2O)Cc2cc(C(C)(C)C)cc(c2OCCCn2cc(CN4C(=O)C(=O)c5cc(Cl)ccc54)nn2)C3)cc1.[I-].[I-]
Tgt: PNT1A
Live cells, %: 97.91

Smiles entry: C[n+]1ccc(/C=C/c2cc3c(O)c(c2)Cc2cc(C(C)(C)C)cc(c2OCCCn2cc(CN4C(=O)C(=O)c5cc(F)ccc54)nn2)Cc2cc(/C=C/c4cc[n+](C)cc4)cc(c2O)Cc2cc(C(C)(C)C)cc(c2OCCCn2cc(CN4C(=O)C(=O)c5cc(F)ccc54)nn2)C3)cc1.[I-].[I-]
Tgt: PNT1A
Live cells, %: 93.92

Smiles entry: C[n+]1ccc(/C=C/c2cc3c(O)c(c2)Cc2cc(C(C)(C)C)cc(c2OCCCn2cc(CN4C(=O)C(=O)c5cc(Br)ccc54)nn2)Cc2cc(/C=C/c4cc[n+](C)cc4)cc(c2O)Cc2cc(C(C)(C)C)cc(c2OCCCn2cc(CN4C(=O)C(=O)c5cc(Br)ccc54)nn2)C3)cc1.[I-].[I-]
Tgt: PNT1A
Live cells, %: 96.14

Smiles entry: C[n+]1ccc(/C=C/c2cc3c(O)c(c2)Cc2cc(C(C)(C)C)cc(c2OCCCn2cc(CN4C(=O)C(=O)c5cc(I)ccc54)nn2)Cc2cc(/C=C/c4cc[n+](C)cc4)cc(c2O)Cc2cc(C(C)(C)C)cc(c2OCCCn2cc(CN4C(=O)C(=O)c5cc(I)ccc54)nn2)C3)cc1.[I-].[I-]
Tgt: PNT1A
Live cells, %: 96.68

Smiles entry: Cc1ccc2c(c1)C(=O)C(=O)N2Cc1cn(CCCOc2c3cc(C(C)(C)C)cc2Cc2cc(/C=C/c4cc[n+](C)cc4)cc(c2O)Cc2cc(C(C)(C)C)cc(c2OCCCn2cc(CN4C(=O)C(=O)c5cc(C)ccc54)nn2)Cc2cc(/C=C/c4cc[n+](C)cc4)cc(c2O)C3)nn1.[I-].[I-]
Tgt: PNT1A
Live cells, %: 95.6

----------
As shown below, each of these compounds has a reported Activity value.
Test system: MCF7
Assay text: Induction of apoptosis in human MCF7 cells assessed as late apoptotic cells incubated for 48 hrs by annexin V and 7-AAD staining based flow cytometry analysis (reference value: 0.68%)
Assay type: functional

Smiles entry: C[n+]1ccc(/C=C/c2cc3c(O)c(c2)Cc2cc(C(C)(C)C)cc(c2OCCCn2cc(CN4C(=O)C(=O)c5cc(Cl)ccc54)nn2)Cc2cc(/C=C/c4cc[n+](C)cc4)cc(c2O)Cc2cc(C(C)(C)C)cc(c2OCCCn2cc(CN4C(=O)C(=O)c5cc(Cl)ccc54)nn2)C3)cc1.[I-].[I-]
Activity: 36.24%
--
Smiles entry: Cc1ccc2c(c1)C(=O)C(=O)N2Cc1cn(CCCOc2c3cc(C(C)(C)C)cc2Cc2cc(/C=C/c4cc[n+](C)cc4)cc(c2O)Cc2cc(C(C)(C)C)cc(c2OCCCn2cc(CN4C(=O)C(=O)c5cc(C)ccc54)nn2)Cc2cc(/C=C/c4cc[n+](C)cc4)cc(c2O)C3)nn1.[I-].[I-]
Activity: 15.04%
--
Smiles entry: C[n+]1ccc(/C=C/c2cc3c(O)c(c2)Cc2cc(C(C)(C)C)cc(c2OCCCn2cc(CN4C(=O)C(=O)c5cc(I)ccc54)nn2)Cc2cc(/C=C/c4cc[n+](C)cc4)cc(c2O)Cc2cc(C(C)(C)C)cc(c2OCCCn2cc(CN4C(=O)C(=O)c5cc(I)ccc54)nn2)C3)cc1.[I-].[I-]
Activity: 36.55%
--
Smiles entry: C[n+]1ccc(/C=C/c2cc3c(O)c(c2)Cc2cc(C(C)(C)C)cc(c2OCCCn2cc(CN4C(=O)C(=O)c5cc(F)ccc54)nn2)Cc2cc(/C=C/c4cc[n+](C)cc4)cc(c2O)Cc2cc(C(C)(C)C)cc(c2OCCCn2cc(CN4C(=O)C(=O)c5cc(F)ccc54)nn2)C3)cc1.[I-].[I-]
Activity: 45.79%
--
Smiles entry: C[n+]1ccc(/C=C/c2cc3c(O)c(c2)Cc2cc(C(C)(C)C)cc(c2OCCCn2cc(CN4C(=O)C(=O)c5cc(Br)ccc54)nn2)Cc2cc(/C=C/c4cc[n+](C)cc4)cc(c2O)Cc2cc(C(C)(C)C)cc(c2OCCCn2cc(CN4C(=O)C(=O)c5cc(Br)ccc54)nn2)C3)cc1.[I-].[I-]
Activity: 24.62%
--
Smiles entry: C[n+]1ccc(/C=C/c2cc3c(O)c(c2)Cc2cc(C(C)(C)C)cc(c2OCCCn2cc(CN4C(=O)C(=O)c5ccccc54)nn2)Cc2cc(/C=C/c4cc[n+](C)cc4)cc(c2O)Cc2cc(C(C)(C)C)cc(c2OCCCn2cc(CN4C(=O)C(=O)c5ccccc54)nn2)C3)cc1.[I-].[I-]
Activity: 37.69%

----------
Test system: MCF7
Assay text: Antiproliferative activity against human MCF7 cells assessed as inhibition of cell growth measured after 48 hrs by Alamar blue dye based assay
Assay type: functional
Test conditions: MCF7, 48 h

Smiles entry: C[n+]1ccc(/C=C/c2cc3c(O)c(c2)Cc2cc(C(C)(C)C)cc(c2OCCCn2cc(CN4C(=O)C(=O)c5ccccc54)nn2)Cc2cc(/C=C/c4cc[n+](C)cc4)cc(c2O)Cc2cc(C(C)(C)C)cc(c2OCCCn2cc(CN4C(=O)C(=O)c5ccccc54)nn2)C3)cc1.[I-].[I-]
IC50, µM: 19.2

Smiles entry: Cc1ccc2c(c1)C(=O)C(=O)N2Cc1cn(CCCOc2c3cc(C(C)(C)C)cc2Cc2cc(/C=C/c4cc[n+](C)cc4)cc(c2O)Cc2cc(C(C)(C)C)cc(c2OCCCn2cc(CN4C(=O)C(=O)c5cc(C)ccc54)nn2)Cc2cc(/C=C/c4cc[n+](C)cc4)cc(c2O)C3)nn1.[I-].[I-]
IC50, µM: 10.2

----------
As shown below, each of these compounds has a reported Activity value.
Tested on: MDA-MB-231
Assay text: Induction of apoptosis in human MDA-MB-231 cells assessed as early apoptotic cells incubated for 48 hrs by annexin V and 7-AAD staining based flow cytometry analysis (reference value: 0.18%)
Type: functional

Smiles entry: C[n+]1ccc(/C=C/c2cc3c(O)c(c2)Cc2cc(C(C)(C)C)cc(c2OCCCn2cc(CN4C(=O)C(=O)c5cc(Br)ccc54)nn2)Cc2cc(/C=C/c4cc[n+](C)cc4)cc(c2O)Cc2cc(C(C)(C)C)cc(c2OCCCn2cc(CN4C(=O)C(=O)c5cc(Br)ccc54)nn2)C3)cc1.[I-].[I-]
Tgt: MDA-MB-231
Units: %
Activity: 0.4

Smiles entry: C[n+]1ccc(/C=C/c2cc3c(O)c(c2)Cc2cc(C(C)(C)C)cc(c2OCCCn2cc(CN4C(=O)C(=O)c5cc(Cl)ccc54)nn2)Cc2cc(/C=C/c4cc[n+](C)cc4)cc(c2O)Cc2cc(C(C)(C)C)cc(c2OCCCn2cc(CN4C(=O)C(=O)c5cc(Cl)ccc54)nn2)C3)cc1.[I-].[I-]
Tgt: MDA-MB-231
Units: %
Activity: 0.23

Smiles entry: C[n+]1ccc(/C=C/c2cc3c(O)c(c2)Cc2cc(C(C)(C)C)cc(c2OCCCn2cc(CN4C(=O)C(=O)c5ccccc54)nn2)Cc2cc(/C=C/c4cc[n+](C)cc4)cc(c2O)Cc2cc(C(C)(C)C)cc(c2OCCCn2cc(CN4C(=O)C(=O)c5ccccc54)nn2)C3)cc1.[I-].[I-]
Tgt: MDA-MB-231
Units: %
Activity: 0.26

Smiles entry: C[n+]1ccc(/C=C/c2cc3c(O)c(c2)Cc2cc(C(C)(C)C)cc(c2OCCCn2cc(CN4C(=O)C(=O)c5cc(F)ccc54)nn2)Cc2cc(/C=C/c4cc[n+](C)cc4)cc(c2O)Cc2cc(C(C)(C)C)cc(c2OCCCn2cc(CN4C(=O)C(=O)c5cc(F)ccc54)nn2)C3)cc1.[I-].[I-]
Tgt: MDA-MB-231
Units: %
Activity: 0.11
